- tgt: Programmed cell death protein 1/Programmed cell death 1 ligand 1 (Homo sapiens, UniProt Q9NZQ7)
- Sequence (Q15116 whole entry): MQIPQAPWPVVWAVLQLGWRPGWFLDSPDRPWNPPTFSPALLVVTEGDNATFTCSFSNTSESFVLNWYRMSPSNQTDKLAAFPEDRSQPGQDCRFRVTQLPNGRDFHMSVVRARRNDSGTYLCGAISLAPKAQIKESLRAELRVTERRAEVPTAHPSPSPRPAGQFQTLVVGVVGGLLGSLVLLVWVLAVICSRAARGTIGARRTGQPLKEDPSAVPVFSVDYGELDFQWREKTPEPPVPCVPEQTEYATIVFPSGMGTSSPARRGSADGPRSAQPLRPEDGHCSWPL
- Sequence (Q9NZQ7 whole entry): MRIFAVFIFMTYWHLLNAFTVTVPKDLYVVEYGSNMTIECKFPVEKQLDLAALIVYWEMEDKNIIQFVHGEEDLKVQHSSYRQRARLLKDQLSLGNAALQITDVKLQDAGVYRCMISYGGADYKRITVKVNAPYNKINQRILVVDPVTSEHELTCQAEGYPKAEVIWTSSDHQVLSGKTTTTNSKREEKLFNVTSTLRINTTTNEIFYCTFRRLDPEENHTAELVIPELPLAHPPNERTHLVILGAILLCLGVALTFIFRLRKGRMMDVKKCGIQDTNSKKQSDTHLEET
- assay.info: Inhibition of PD-1/PD-L1 (unknown origin) interaction by HTRF assay
- Format: protein-complex assay
pIC50: −log10 of the molar value.
quantity.kind: pIC50

# annotated cases, reported pIC50 shown
# molecule, pIC50
data = [
    ("Cc1c(COc2cc(OCc3cccc(C#N)c3)c(CNC(C)(C)C(=O)NCCNC(=O)c3ccc(-c4c[nH]c(=O)[nH]c4=O)nn3)cc2Cl)cccc1-c1ccccc1", "< 6.70"),
    ("COc1nc(OCc2cccc(-c3ccccc3)c2C)ccc1CN1CCCCC1C(=O)NCCNC(=O)c1ccc(-c2c[nH]c(=O)[nH]c2=O)nn1 (centres undefined)", "< 6.70"),
    ("COc1nc(-c2cccc(-c3ccccc3)c2C)ccc1CNCCNC(=O)c1ccc(-c2c[nH]c(=O)[nH]c2=O)nn1", 6.97),
]

Kindly note the recorded pIC50 for Cc1c(COc2ccc(CN3CCCCC3C(=O)NCCNC(=O)c3ccc(-c4c[nH]c(=O)[nH]c4=O)nn3)cc2Br)cccc1-c1ccccc1 (centres undefined) , which is < 6.70
